target: E. coli MurF (Escherichia coli); assay: biochemical; conditions: 0.25 h, Table S1, PKIS screening; read-out: RA [%] at 100 µM MurF
For each entry below, report its remaining activity at 100 µM value.
Give bare numbers, in %.

Check out these entries, answers already filled in.
Observed remaining activity at 100 µM on E. coli MurF (Escherichia coli), entry Fc1ccc(-c2ncn(C3CCNCC3)c2-c2ccnc(Oc3ccc4c(c3)OCO4)n2)cc1 [SB-250715] , equals 85

Observed remaining activity at 100 µM, E. coli MurF (Escherichia coli), CN(C)CCNC(=O)Nc1ccc(N(C)c2ccnc(Nc3ccc(CS(C)(=O)=O)cc3)n2)cc1 [GW830900A] : 75

Bench note, E. coli MurF (Escherichia coli): CCn1c(-c2nonc2N)nc2c(C#CC(C)(C)O)nc(OCCNC)cc21 [GSK949675A] , remaining activity at 100 µM reads 74

---
The compound NS(=O)(=O)c1cccc(N/C=C2\C(=O)Nc3ccccc32)c1 [GW275616X] , tested on E. coli MurF (Escherichia coli), showed remaining activity at 100 µM of 83

###

Target: UniProt P14900
Experiment: biochemical
Settings: 0.25 h, Table S1, PKIS screening; read-out: RA [%] at 100 µM MurD
Protocol: Inhibition of the Mur ligases was determined using the malachite green assay, with slight modifications. In all cases, the final concentration of DMSO was 5% (v/v). After incubation for 15 min at 37 °C, the enzyme reaction was terminated by addition of 100 µM Biomol green reagent, and the absorbance was measured at 650 nm after 5 min. […] Residual activities were calculated with respect to control assays without the tested compounds, but with the 5% DMSO carrier. […]
Lab note: class by remaining activity at 100 µM, see band 1 (below 80%), band 2 (80% to below 90%), band 3 (90% or more)

Past entries and their recorded results:
Lookup: Hello team, could you let me know which band the following compound falls into: Cc1ccc(NC(=O)c2ccnc(N3CCCC3)c2)cc1-c1ccc(C(=O)NCC2CC2)cc1 [GW769076X]
Found: band 1

Lookup: Assign a bin to NC(=O)c1ccc2c(-c3ccnc(NCCCO)n3)c(-c3ccc(F)cc3)nn2c1 [GW581744X]
Found: band 1

Lookup: Please let me know in which category the item CCn1c(-c2nonc2N)nc2c(C#CC(C)(C)O)ncc(OC3CCNCC3)c21 [GSK619487A] belongs.
Found: band 2

Lookup: Please let me know in which category the item Nc1ncnc2occ(-c3ccc(NC(=O)Nc4cc(C(F)(F)F)cc(C(F)(F)F)c4)cc3)c12 [GW795486X] belongs.
Found: band 1

Lookup: Into which category would you place CCS(=O)(=O)c1ccc(OC)c(Nc2ncc(-c3cccc(F)c3)o2)c1 [GW621970X] ?
Found: band 1

New cases:
Lookup: Category of COc1cc2ncn(-c3cc(OCc4ccccc4C(F)(F)F)c(C(=O)N(C)C)s3)c2cc1OC [GSK1030062A] , please.
Found: band 1

Lookup: Any idea which band O=C1Nc2ccc(C(=O)c3ccco3)cc2C1=Cc1cc(Cl)c(O)c(Cl)c1 [GW406108X] is in?
Found: band 2

Lookup: # bin label for Nc1nccc(-c2c(-c3ccc(F)cc3)ncn2C2CCC(O)CC2)n1 (centres unmarked)
Found: band 2

Lookup: Where would CC1=C(C(=O)Nc2cc(Cl)c3[nH]ncc3c2)C(c2ccc(C(F)(F)F)cc2)CC(=O)N1 (centres unmarked) [GSK466317A] land among the classes by reported remaining activity at 100 µM?
Found: band 3

Lookup: Hi, small favor: classify NS(=O)(=O)c1ccc(-c2ccc3c(NC(=O)C4CC4)n[nH]c3c2)cc1 by its remaining activity at 100 µM when you get a moment.
Found: band 2

Lookup: Textbook exercise: identify the category of the compound given here, NS(=O)(=O)c1ccc(NN=C2C(=O)Nc3ccc(C(=O)NCc4ccncc4)cc32)cc1 [GW300657X] , according to its measured value.
Found: band 3

Lookup: Bin this entry: Cc1nnc(-c2cccc(-c3ccc(C(=O)NCC4CC4)cc3)c2)o1 [GW734508X]
Found: band 3

Lookup: GET /class?item= NS(=O)(=O)c1ccc(Nc2ncc(-c3ccccc3)o2)cc1 [GW572399X]
Found: band 3

Lookup: Assign a bin to COc1ccc2[nH]c3c4[nH]c5ccc(OC)cc5c4c4c(c3c2c1)C(=O)NC4=O [GW296115X]
Found: band 2

Lookup: For NS(=O)(=O)c1ccc(N/N=C2\C(=O)Nc3ccc(-c4cnco4)cc32)cc1 [GW276655X] , which remaining activity at 100 µM bin applies?
Found: band 1

Lookup: Please let me know in which category the item Nc1ncnc2occ(-c3ccc(NC(=O)Nc4cc(C(F)(F)F)ccc4F)cc3)c12 [GW770249A] belongs.
Found: band 2

Lookup: Form field 'band' for CCn1c(-c2nonc2N)nc2c(C#CC(C)(C)O)nc(OCCNC)cc21 [GSK949675A]
Found: band 2

Lookup: # bin lookup: classify COc1ccc(-c2nn3ncccc3c2-c2ccnc(Nc3ccc(F)c(F)c3)n2)cc1 [GW827396X] by its remaining activity at 100 µM
Found: band 1

Lookup: Which remaining activity at 100 µM category applies to Cc1nnc(-c2ccc(C)c(-c3ccc(C(=O)NCc4ccc(Cl)cc4)cc3)c2)o1 [GW708893X] here?
Found: band 3

###

molecular target: E. coli MurC (Escherichia coli); assay: Malachite green inhibition assay, MurC; type: biochemical; conditions: 0.25 h, Table S1, PKIS screening; read-out: RA [%] at 100 µM MurC
Sequence (P17952 whole entry): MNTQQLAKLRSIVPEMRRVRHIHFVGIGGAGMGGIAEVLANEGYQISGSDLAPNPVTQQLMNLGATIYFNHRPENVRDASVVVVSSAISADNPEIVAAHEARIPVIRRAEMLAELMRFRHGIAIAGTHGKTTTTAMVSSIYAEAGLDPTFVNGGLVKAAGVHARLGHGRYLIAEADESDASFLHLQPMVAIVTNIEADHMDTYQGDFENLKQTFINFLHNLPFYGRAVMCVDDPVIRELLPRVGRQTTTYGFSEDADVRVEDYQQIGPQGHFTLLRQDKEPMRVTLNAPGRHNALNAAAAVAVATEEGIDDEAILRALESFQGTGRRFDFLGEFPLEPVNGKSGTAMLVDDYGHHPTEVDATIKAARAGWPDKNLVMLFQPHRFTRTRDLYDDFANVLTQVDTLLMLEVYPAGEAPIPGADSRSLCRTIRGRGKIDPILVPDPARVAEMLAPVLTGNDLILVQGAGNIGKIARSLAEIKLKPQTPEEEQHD
result type: remaining activity at 100 µM (%)
Give bare numbers, in %.

Answered cases to consult:
remaining activity at 100 µM reading for [O-][S+]1CCN(Cc2ccc(-c3ccc4ncnc(Nc5ccc(OCc6ccccc6)c(F)c5)c4c3)o2)CC1 [GW576924A] : 39

According to the records, this compound CN1CCC(C(=O)Nc2n[nH]c3nc(-c4ccc(O)cc4)c(Br)cc23)CC1 [SB-732881] displays remaining activity at 100 µM of 71

Input CN(C)c1cc2c(Nc3ccc4c(cnn4Cc4ccccc4)c3)ncnc2cn1 [GW282974X] . Output remaining activity at 100 µM: 77

Memo: O=S(=O)(CCOCc1ccc(-c2ccc3ncnc(Nc4ccc(OCc5cccc(F)c5)c(Cl)c4)c3c2)o1)c1ccccc1 [GW615311X] , reported remaining activity at 100 µM: 97

Quick note, remaining activity at 100 µM for COC(=O)c1ccc2c(c1)C(=Cc1cc(Br)c(O)c(Br)c1)C(=O)N2 [GW405841X] landed at 93

Just so you know, measured remaining activity at 100 µM for CCn1cc(-c2ccnc3[nH]ccc23)c(-c2cccc(NC(=O)Nc3ccc(OCc4ccccc4)cc3)c2)n1 [GSK718429A] came out at 94

Just so you know, measured remaining activity at 100 µM for Fc1ccc(-c2c(-c3ccncc3)nc3n2CCS3)cc1 [SKF-86055] came out at 98

Further cases:
# remaining activity at 100 µM of NC(=O)c1cc(-c2ccncc2)cc(-c2ccccc2)c1N [GSK625137A] = 65

###

target: MurD from E. coli (Escherichia coli); test: Steady-state kinetic analysis on MurD; type: biochemical; conditions: Ki (µM), substrate ATP varied; fixed D-Glu 100 µM, UMA 80 µM
result type: Ki (µM)
Give bare numbers, in µM.

What the record says about Cc1cc(-c2ccco2)cc(C)c1/C=C/c1cncc(-c2nn[nH]n2)c1 [Compound 1] : Ki is 18.7

###

molecular target: E. coli MurD (Escherichia coli); test: biochemical; conditions: 0.25 h, Table S1, PKIS screening; read-out: RA [%] at 100 µM MurD
Sequence (P14900 whole entry): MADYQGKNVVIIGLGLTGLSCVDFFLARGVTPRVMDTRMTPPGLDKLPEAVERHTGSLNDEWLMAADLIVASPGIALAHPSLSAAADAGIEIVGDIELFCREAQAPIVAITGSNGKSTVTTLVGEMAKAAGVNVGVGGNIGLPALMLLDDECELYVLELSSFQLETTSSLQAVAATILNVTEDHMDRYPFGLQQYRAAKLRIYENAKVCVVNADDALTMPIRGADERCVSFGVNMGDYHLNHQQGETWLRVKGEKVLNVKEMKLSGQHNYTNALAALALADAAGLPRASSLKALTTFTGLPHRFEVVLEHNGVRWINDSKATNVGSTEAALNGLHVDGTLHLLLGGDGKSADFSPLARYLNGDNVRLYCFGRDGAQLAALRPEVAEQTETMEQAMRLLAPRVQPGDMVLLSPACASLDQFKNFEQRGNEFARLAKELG
result type: remaining activity at 100 µM (%)
Numbers only, in %.

Can you give me remaining activity at 100 µM for all of these, one by one?
1. CN(C)c1cc2c(Nc3ccc4c(cnn4Cc4ccccc4)c3)ncnc2cn1 [GW282974X]
2. NS(=O)(=O)c1ccc(N/C=C2\C(=O)Nc3ccc4ncsc4c32)cc1 [GW297361X]

Found:
[70, 76]

###

biological target: E. coli MurF (Escherichia coli, UniProt P11880); assay: biochemical; conditions: 0.25 h, Table S1, PKIS screening; read-out: RA [%] at 100 µM MurF
Sequence (P11880 whole entry): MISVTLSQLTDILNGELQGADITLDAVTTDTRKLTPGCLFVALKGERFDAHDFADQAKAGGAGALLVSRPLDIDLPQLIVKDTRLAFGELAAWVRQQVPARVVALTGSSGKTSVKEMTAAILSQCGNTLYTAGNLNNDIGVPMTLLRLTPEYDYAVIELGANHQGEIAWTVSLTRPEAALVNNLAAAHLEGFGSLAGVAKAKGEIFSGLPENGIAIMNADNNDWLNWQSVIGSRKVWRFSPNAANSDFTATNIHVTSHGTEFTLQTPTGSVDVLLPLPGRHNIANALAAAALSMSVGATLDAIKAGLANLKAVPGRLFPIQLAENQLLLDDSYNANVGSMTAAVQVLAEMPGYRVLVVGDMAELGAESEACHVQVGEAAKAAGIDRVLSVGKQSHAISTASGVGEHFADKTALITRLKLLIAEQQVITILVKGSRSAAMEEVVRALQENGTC
Quick rule for you: remaining activity at 100 µM under 80% gets TRUE, anything else gets FALSE.

Use the examples below as a reference point.
Lookup: Hello, is remaining activity at 100 µM of the following molecule strictly smaller than 80%? COc1cc2ncn(-c3cc(OCc4ccccc4C(F)(F)F)c(C(N)=O)s3)c2cc1OC [GW843682X]
Found: FALSE

Lookup: Please indicate whether the reported remaining activity at 100 µM of COc1ccc(Nc2ncc(-c3ccccc3)o2)cc1OC [GW575533A] is strictly below 80%.
Found: TRUE

Lookup: Strictly below 80% in remaining activity at 100 µM? COc1cc2ncn(-c3cc(OCc4ccccc4S(C)(=O)=O)c(C#N)s3)c2cc1OC [GSK319347A]
Found: TRUE

Lookup: # check: remaining activity at 100 µM < 80% for O=C(Nc1n[nH]c2nc(-c3ccco3)c(Br)cc12)C1CC1 [SB-739452]
Found: FALSE

Lookup: Field: below-cutoff. Rule: recorded remaining activity at 100 µM strictly less than 80%. Subject: CNC(=O)c1cncc(/C=C/c2c(C)cccc2C)c1 [GW445012X]
Found: TRUE

New cases:
Lookup: Please let me know if O=C(Nc1n[nH]c2nc(-c3ccco3)ccc12)C1CC1 [SB-743899] shows remaining activity at 100 µM below 80%.
Found: FALSE

Lookup: For this molecule, is remaining activity at 100 µM lower than 80%? N#Cc1cccc(Nc2nccc(-c3cnn4ncccc34)n2)c1 [GW778894X]
Found: TRUE

The measurements presented in this section are drawn from paper PMC6522912.
